Target: T1, soluble KDR extracellular domain (ECD) (Calbiochem) (human, UniProt P35968 20-764)
T1 construct: extracellular domain; Bought protein; also called KDR-ECD; VEGF Receptor 2 D1-7, Cat. #676490
T1 sequence (P35968 20-764): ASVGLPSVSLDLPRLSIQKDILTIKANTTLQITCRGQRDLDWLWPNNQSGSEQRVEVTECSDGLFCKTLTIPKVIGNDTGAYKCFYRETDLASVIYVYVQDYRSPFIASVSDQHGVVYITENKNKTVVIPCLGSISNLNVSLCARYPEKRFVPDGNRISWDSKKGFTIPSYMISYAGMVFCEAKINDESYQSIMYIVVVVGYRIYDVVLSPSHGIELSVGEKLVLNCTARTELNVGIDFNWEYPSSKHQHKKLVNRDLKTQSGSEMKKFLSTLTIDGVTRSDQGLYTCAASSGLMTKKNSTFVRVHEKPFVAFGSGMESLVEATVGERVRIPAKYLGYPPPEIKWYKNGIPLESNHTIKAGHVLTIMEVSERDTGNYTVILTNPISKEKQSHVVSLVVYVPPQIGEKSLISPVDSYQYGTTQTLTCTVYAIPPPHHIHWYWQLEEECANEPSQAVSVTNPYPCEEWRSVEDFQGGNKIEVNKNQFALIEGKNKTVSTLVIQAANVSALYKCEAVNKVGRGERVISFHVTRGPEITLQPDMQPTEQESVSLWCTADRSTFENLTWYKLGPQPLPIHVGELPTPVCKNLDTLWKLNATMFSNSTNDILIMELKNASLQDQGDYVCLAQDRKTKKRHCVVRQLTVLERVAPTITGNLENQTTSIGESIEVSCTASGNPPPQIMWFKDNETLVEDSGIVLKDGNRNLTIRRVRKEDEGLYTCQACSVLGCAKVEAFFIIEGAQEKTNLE
Assay: High Antigen ELISA, KDR coat 500 ng/mL, supernatant 1:6075
experimental_endpoint: ELISA reading
Enter a number only.

Solved cases below.
[
  {
    "binder": "29F7 (antibody, V domains shown, Fully human mAb from XenoMouse hybridoma, tested as hybridoma supernatant) VH: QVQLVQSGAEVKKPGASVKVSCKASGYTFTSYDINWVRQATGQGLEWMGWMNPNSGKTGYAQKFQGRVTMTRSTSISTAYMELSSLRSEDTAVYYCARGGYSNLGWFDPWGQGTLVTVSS VL: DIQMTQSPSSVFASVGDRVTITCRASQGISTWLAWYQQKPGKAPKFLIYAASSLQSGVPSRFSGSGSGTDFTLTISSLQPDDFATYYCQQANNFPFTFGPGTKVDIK",
    "ELISA reading": 0.57
  },
  {
    "binder": "30D7 (antibody, V domains shown, Fully human mAb from XenoMouse hybridoma, tested as hybridoma supernatant) VH: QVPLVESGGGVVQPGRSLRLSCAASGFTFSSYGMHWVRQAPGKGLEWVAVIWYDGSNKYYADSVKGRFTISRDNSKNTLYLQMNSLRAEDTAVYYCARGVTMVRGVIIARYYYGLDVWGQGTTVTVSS VL: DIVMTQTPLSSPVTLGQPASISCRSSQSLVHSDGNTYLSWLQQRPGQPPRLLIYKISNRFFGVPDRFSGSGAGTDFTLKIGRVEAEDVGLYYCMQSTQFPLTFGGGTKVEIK",
    "ELISA reading": 1.02
  },
  {
    "binder": "27A3 (antibody, V domains shown, Fully human mAb from XenoMouse hybridoma, tested as hybridoma supernatant) VH: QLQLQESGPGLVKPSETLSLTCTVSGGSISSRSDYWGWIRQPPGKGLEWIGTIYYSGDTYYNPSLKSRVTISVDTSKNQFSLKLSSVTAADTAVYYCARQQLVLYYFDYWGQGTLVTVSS VL: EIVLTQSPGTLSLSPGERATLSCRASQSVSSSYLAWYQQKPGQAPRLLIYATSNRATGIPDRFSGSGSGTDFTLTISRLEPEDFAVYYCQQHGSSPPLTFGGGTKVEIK",
    "ELISA reading": 0.96
  },
  {
    "binder": "32G7 (antibody, V domains shown, Fully human mAb from XenoMouse hybridoma, tested as hybridoma supernatant) VH: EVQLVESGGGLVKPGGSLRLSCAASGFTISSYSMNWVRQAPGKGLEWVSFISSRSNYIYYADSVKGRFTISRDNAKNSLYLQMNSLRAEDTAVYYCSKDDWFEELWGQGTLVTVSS VL: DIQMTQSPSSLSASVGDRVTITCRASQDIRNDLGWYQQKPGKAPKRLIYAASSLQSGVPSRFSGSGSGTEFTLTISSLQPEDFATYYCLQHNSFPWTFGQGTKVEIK",
    "ELISA reading": 0.24
  }
]

Proceeding to the next binder to report its ELISA reading.
Measured ELISA reading, 33D5 (antibody, V domains shown, Fully human mAb from XenoMouse hybridoma, tested as hybridoma supernatant) VH: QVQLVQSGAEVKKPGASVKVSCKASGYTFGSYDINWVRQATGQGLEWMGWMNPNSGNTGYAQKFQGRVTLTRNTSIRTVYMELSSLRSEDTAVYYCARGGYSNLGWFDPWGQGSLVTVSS VL: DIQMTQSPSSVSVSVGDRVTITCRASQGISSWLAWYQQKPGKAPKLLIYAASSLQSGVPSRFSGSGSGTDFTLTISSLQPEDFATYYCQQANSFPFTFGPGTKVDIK : 1.7
